conditions: buffer; pH 7.4; 200.0 µM
OBSERVED_PROPERTY: solubility kinetic

stdin: Please report the measured solubility kinetic for CC(=O)c1ccccc1NC(=O)CC1(CC(=O)O)CCCCC1
stdout: > 47.6 µg/mL

stdin: Please give the documented solubility kinetic of CC(C)(C)C(=O)OCc1nc(-c2ccc(Cl)cc2)cs1
stdout: < 0.7 µg/mL

stdin: Quickly give me recorded solubility kinetic for CN(C)/N=C/c1ccc(N2CCOCC2)cc1
stdout: > 35 µg/mL

stdin: Respond only with solubility kinetic recorded for O=C(CN1C(=O)NC2(CCCCC2)C1=O)N1CCc2ccccc2C1
stdout: > 51.2 µg/mL

stdin: Identify solubility kinetic associated with the compound CC(=O)c1cn(CC(=O)Nc2ccc(C)c(C)c2)c2ccccc12
stdout: < 0.3 µg/mL

stdin: Provide one value: measured solubility kinetic of CN1CCN(CC#CCC(O)(c2ccccc2)c2ccccc2)CC1.Cl
stdout: > 55.6 µg/mL
